molecular target: cAMP-dependent protein kinase catalytic subunit beta (Homo sapiens) + cAMP-dependent protein kinase type II-beta regulatory subunit (Homo sapiens) (UniProt P22694+P31323); assay: activators of PKA-R2B holoenzyme, primary screen, biochemical, fluorescence polarization, Cy5-IP20, human (AID 504700); settings: PKA-R2B holoenzyme dissociation, at 11.4 µM, active compounds read high, 0% DMSO only, 100% 113 µM cGMP, R2B truncated from residue 108, S112A mutant;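 also: higher means more holoenzyme dissociation and a rise in polarization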
Sequence (P31323 whole entry, looked up, other chains not shown, the tested form may be a part): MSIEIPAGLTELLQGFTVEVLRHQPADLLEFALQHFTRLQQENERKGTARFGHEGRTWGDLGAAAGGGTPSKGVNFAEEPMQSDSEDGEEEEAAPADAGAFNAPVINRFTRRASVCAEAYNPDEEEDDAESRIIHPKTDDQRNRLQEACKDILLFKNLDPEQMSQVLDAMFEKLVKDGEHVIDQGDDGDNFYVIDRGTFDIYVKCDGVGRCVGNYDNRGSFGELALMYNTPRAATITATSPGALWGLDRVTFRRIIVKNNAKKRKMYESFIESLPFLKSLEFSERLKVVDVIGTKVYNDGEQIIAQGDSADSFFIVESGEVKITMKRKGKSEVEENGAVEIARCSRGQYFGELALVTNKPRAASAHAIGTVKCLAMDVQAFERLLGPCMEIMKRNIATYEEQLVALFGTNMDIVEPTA
Screen size: about 340,000 compounds; about 270 (0.079%) were called active. Only a selection was taken, and actives are over-represented in it overall.
Here the recorded activation is given for each entry.

COc1ccc(CN2C(=O)C(CC(=O)NCc3cccc4ccccc34)CC(C(=O)N3CCOCC3)=C2C)cc1 (stereo unspecified): 2.78% (inactive)
COc1ccc(C(=O)CSc2nnc(NC(=O)C3CC(=O)N(c4cccc(OC)c4)C3)s2)cc1 (stereo unspecified): -12.2% (inactive)
O=C(NCc1nnnn1-c1ccc(Cl)cc1)c1ccc([N+](=O)[O-])o1: -12% (inactive)

Input "O=NN(CCCl)C(=O)NCCc1cccc[n+]1[O-]" . Output activation: -9.83% (inactive)

Measured activation, "COc1cccc(Nc2nnc(SCC(=O)N3CC(=O)Nc4ccccc43)s2)c1" : -4.91% (inactive)

# activation (compound: "C[C@@H]1CN([C@@H](C)CO)S(=O)(=O)c2ccc(C#Cc3cccc(F)c3)cc2O[C@H]1CN(C)S(=O)(=O)c1cn(C)cn1" ) is 7.01% (inactive)

Looking up COCC1CCCCN1C(=O)c1cc(COc2ccc(C)c(C)c2)on1 (stereo unspecified) , I found its activation recorded as -6.78% (inactive)

Record summary for "COc1cccc(OC)c1C(=O)N1CCN(Cc2ccccc2F)CC1" : reported activation = -3.43% (inactive)

get_value(item= "Nc1nnn(CC(=O)N/N=C/c2ccc(O)cc2)n1" , readout=activation) returns -7.14% (inactive)

Query Cc1ccc(-c2ccc(CN3C(C)C(=O)N(Cc4cn(CCC5OCCCO5)nn4)CCS3(=O)=O)cc2)cc1 (stereo unspecified) yields activation of -0.73% (inactive)

Field activation (entry COc1ccc(C(=O)NCC2CCCO2)cc1S(=O)(=O)NCc1ccc(Cl)cc1 (stereo unspecified) ) reads -8.65% (inactive)

"O=S1(=O)CCN(Cc2ccccc2)CC1" yielded activation of -1.42% (inactive)

// activation value for "CC(C)(C)c1nnc(N/N=C/c2ccc(O)cc2)n(N)c1=O" : 21.1% (active)

Measured activation of "O=Nc1c(O)cc(O)c2ccccc12" : -0.7% (inactive)

Field activation (entry CCc1cccc(CC)c1N1C(=O)CC(Sc2ccccc2N)C1=O (stereo unspecified) ) reads 3.56% (inactive)

For record CNC(=O)C1CN(C(=O)c2cccc(S(=O)(=O)N3CCc4ccccc43)c2)c2ccccc2O1 (stereo unspecified) the listed activation is 1.53% (inactive)

* * *

molecular target: cAMP-dependent protein kinase catalytic subunit beta (Homo sapiens) + cAMP-dependent protein kinase type II-beta regulatory subunit (Homo sapiens) (UniProt P22694+P31323); assay: activators of PKA-R2B holoenzyme, primary screen, biochemical, fluorescence polarization, Cy5-IP20, human (AID 504700); settings: PKA-R2B holoenzyme dissociation, at 11.4 µM, active compounds read high, 0% DMSO only, 100% 113 µM cGMP, R2B truncated from residue 108, S112A mutant;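 also: higher means more holoenzyme dissociation and a rise in polarization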
The campaign covered roughly 340,000 compounds. About 270 (0.079%) were called active. Shown is part of a subset that was picked to be rich in actives.
Item-by-item account of activation
# unit: % | format: bare number

Consider the following illustrative entries.
O=C(CN(C(=O)CCC(=O)Nc1nccs1)c1ccc(F)cc1)NCc1ccc2c(c1)OCO2: 18.4
C[C@H](CO)N1C[C@H](C)[C@H](CN(C)C(=O)Nc2ccc3c(c2)OCO3)Oc2ncc(Br)cc2C1=O: 6.88
Cc1ccc([C@H]2N[C@]3(CCCN(CC4CCCCC4)C3=O)[C@H]3C(=O)N(Cc4ccccc4)C(=O)[C@@H]23)cc1: -3.62
C[C@@H]1CN([C@@H](C)CO)C(=O)c2cc(NS(C)(=O)=O)ccc2O[C@@H](C)CCCCO[C@H]1CN(C)C(=O)Nc1ccc2c(c1)OCO2: 3.71
CC(=O)Nc1c(-c2ccc(C)cc2)nc2ccc(Cl)cn12: -8.99
O=C(c1cccs1)N1C[C@H](n2cc(C3CC3)nn2)[C@@H](O)C[C@@H]1c1ccccc1: 5.94
O=C(COC(=O)Cc1ccc(Cl)cc1Cl)NCc1ccco1: -1.41
CCCCN1C(=O)C(CC(=O)NCc2cccs2)CC(C(=O)N2CCOCC2)=C1C (centres undefined): 3.17

Let us move to another entry and its activation.
Reported activation ( "COCCCn1c(=O)/c(=C/c2ccccc2OC(C)C)s/c1=C(\C#N)C(=O)Nc1ccc(C(=O)O)cc1" ) = 0.06
